test: gradient 5% acetonitrile 3 min, to 50% in 2 min, to 85% in 15 min, held 3 min, 100 µL/min; conditions: column: Zorbax Extend-C18 2.1 x 50 mm; eluents: water / acetonitrile, 0.1% formic acid
Doc: threshold 800 s (exclusive). Items with RP-LC retention time beneath it return 1.0; others return 0.0.

# check: RP-LC retention time < 800 s for CCc1nc2ccccc2c(=O)n1Cc1noc(-c2ccc3c(c2)OCO3)n1
0.0

# check: RP-LC retention time < 800 s for CC(C)c1ccc(NC(=O)Cn2cccc2-c2nc(-c3ccc4c(c3)OCO4)no2)cc1
0.0

# check: RP-LC retention time < 800 s for CCCNC(=O)c1ncn2c1C(=O)N(C1CC1)C(C)(C(=O)NCc1ccccc1Cl)C2 (stereo not given)
1.0

# check: RP-LC retention time < 800 s for CN(C)S(=O)(=O)c1ccc(N)c([N+](=O)[O-])c1
1.0

# check: RP-LC retention time < 800 s for CCCCS(=O)(=O)N1CCc2c(c(-c3nnc(-c4ccc(F)cc4)o3)nn2C)C1
0.0

# check: RP-LC retention time < 800 s for CN1CCCc2cc(C(=O)NC3CCCCCC3)sc21
1.0

# check: RP-LC retention time < 800 s for CC1CCCCN1c1cc(-n2cnc(C(=O)N3CCCCC3)c2)ncn1 (stereo not given)
0.0

# check: RP-LC retention time < 800 s for CC1CCN(c2nc3c(c(=O)n(Cc4ccccc4F)c(=O)n3C)n2C)CC1
0.0

Others:
# check: RP-LC retention time < 800 s for NS(=O)(=O)c1ccc(CNC(=O)CCCn2cnc(-c3ccc(F)cc3)cc2=O)cc1
1.0

# check: RP-LC retention time < 800 s for CC1=NS(=O)(=O)N(C)C=C1C(=O)OCc1nc(-c2ccc(F)cc2)no1
0.0

# check: RP-LC retention time < 800 s for Cc1ccc(CNC(=O)c2cccc(C3CCCN(C(=O)NC(C)C)C3)c2)cc1C (stereo not given)
0.0

# check: RP-LC retention time < 800 s for Cc1ccc(CN2C(=O)CN(S(C)(=O)=O)CC2(C)C(=O)NCc2ccccc2)cc1 (stereo not given)
0.0

# check: RP-LC retention time < 800 s for O=C(NC(c1ccccc1)c1nnc(N2CCOCC2)o1)C1CCCCC1 (stereo not given)
1.0

# check: RP-LC retention time < 800 s for Cn1cc2c3c(cccc31)CN(C(=O)Nc1ccc(Br)cc1F)CC2
0.0

# check: RP-LC retention time < 800 s for CNC(=O)[C@@H]1C[C@H](Oc2ccccc2)CN1C(=O)c1n[nH]c2ccccc12
1.0

# check: RP-LC retention time < 800 s for Cc1ccc(OCC(=O)Nc2cc3c(cc2N2CCCC2)n(C)c(=O)c(=O)n3C)c(C)c1
0.0

# check: RP-LC retention time < 800 s for Nc1ccc(NC(=O)c2ccc(C(F)(F)F)cc2)nc1
1.0

# check: RP-LC retention time < 800 s for CC(C)CC(=O)N1c2nc(-c3ccccc3)nn2C2(CCCCC2)[C@@H]2CCCC[C@@H]21
1.0

====

test: gradient 5% acetonitrile 3 min, to 50% in 2 min, to 85% in 15 min, held 3 min, 100 µL/min; settings: column: Zorbax Extend-C18 2.1 x 50 mm; eluents: water / acetonitrile, 0.1% formic acid
Please respond with reported RP-LC retention time for every item in the list.
Give bare numbers, in s.

Below: 4 compounds and their reported RP-LC retention time.
Recorded RP-LC retention time (compound Cc1cccc(S(=O)(=O)N2CCc3c(c(CN4CCCC4)nn3C)C2)c1 ): 810

Recorded RP-LC retention time (compound O=C(Nc1cnc(-c2cccc(Cl)c2)nc1)c1ccccc1 ): 1070

Recorded RP-LC retention time (compound Cc1cc(F)ccc1NC(=O)c1cnc2c(c1)c(=O)n(C)c(=O)n2-c1ccccc1 ): 854

Recorded RP-LC retention time (compound O=C(Nc1c(-c2ccc(F)cc2)nc2ccccn12)c1cccc([N+](=O)[O-])c1 ): 684

Then this compound:
Recorded RP-LC retention time (compound CCc1ccc(CNC(=O)Cn2ccc3c(=O)n(C)c(=O)n(C)c32)cc1 ): 716
